experimental.conditions: in n-propanol, 303.15 K
parameter: solubility (mole fraction)

Consider the compound CC(C)(Oc1ccc(C2CC2(Cl)Cl)cc1)C(=O)O (stereo unspecified) . State its measured solubility (mole fraction).
0.125

----------
experimental.conditions: in n-propanol, 283.15 K
parameter: solubility (mole fraction)
Number, no unit, nothing else.

Complete the entry with solubility (mole fraction) for CC(C)(Oc1ccc(C2CC2(Cl)Cl)cc1)C(=O)O (stereo unspecified)
0.0854

----------
experimental.conditions: in ethanol, 303.15 K
parameter: solubility (mole fraction)
Write no unit; give the number alone.

Identify solubility (mole fraction) associated with the molecule CC(C)(Oc1ccc(C2CC2(Cl)Cl)cc1)C(=O)O (stereo unspecified)
0.239

----------
experimental.conditions: in water, 318.15 K
parameter: solubility (mole fraction)
Form field (numeric): enter value without unit.

Query solubility (mole fraction) for CC(C)(Oc1ccc(C2CC2(Cl)Cl)cc1)C(=O)O (stereo unspecified)
2.33e-06

----------
experimental.conditions: in ethanol, 298.15 K
parameter: solubility (mole fraction)
Field format: numeric only.

# return recorded solubility (mole fraction) for input CC(C)(Oc1ccc(C2CC2(Cl)Cl)cc1)C(=O)O (stereo unspecified)
0.219

----------
experimental.conditions: in ethanol, 278.15 K
parameter: solubility (mole fraction)
Give the figure only, with no unit attached.

Provide one value: measured solubility (mole fraction) of CC(C)(Oc1ccc(C2CC2(Cl)Cl)cc1)C(=O)O (stereo unspecified)
0.156

----------
experimental.conditions: in ethanol, 283.15 K
parameter: solubility (mole fraction)
Respond with the number and no other words.

# return recorded solubility (mole fraction) for entry CC(C)(Oc1ccc(C2CC2(Cl)Cl)cc1)C(=O)O (stereo unspecified)
0.171

----------
experimental.conditions: in ethylene glycol, 318.15 K
parameter: solubility (mole fraction)

Tell me measured solubility (mole fraction) for CC(C)(Oc1ccc(C2CC2(Cl)Cl)cc1)C(=O)O (stereo unspecified) please.
0.077

----------
experimental.conditions: in n-propanol, 313.15 K
parameter: solubility (mole fraction)
Lab note: jot down the number only; don't add units.

Given CC(C)(Oc1ccc(C2CC2(Cl)Cl)cc1)C(=O)O (stereo unspecified) , respond with its solubility (mole fraction).
0.148

----------
experimental.conditions: in ethanol, 288.15 K
parameter: solubility (mole fraction)
Write the value as a bare number.

Give reported solubility (mole fraction) value for CC(C)(Oc1ccc(C2CC2(Cl)Cl)cc1)C(=O)O (stereo unspecified)
0.187

----------
experimental.conditions: in ethylene glycol, 283.15 K
parameter: solubility (mole fraction)
Give a plain numeric answer without units written out.

Answer with reported solubility (mole fraction) of CC(C)(Oc1ccc(C2CC2(Cl)Cl)cc1)C(=O)O (stereo unspecified)
0.0395

----------
experimental.conditions: in DMF, 318.15 K
parameter: solubility (mole fraction)
No unit in the answer, only the number.

Return reported solubility (mole fraction). Input compound: CC(C)(Oc1ccc(C2CC2(Cl)Cl)cc1)C(=O)O (stereo unspecified)
0.385

----------
experimental.conditions: in ethanol, 323.15 K
parameter: solubility (mole fraction)
Give the figure only, with no unit attached.

Quick one: give measured solubility (mole fraction) for CC(C)(Oc1ccc(C2CC2(Cl)Cl)cc1)C(=O)O (stereo unspecified)
0.312

----------
experimental.conditions: in n-propanol, 318.15 K
parameter: solubility (mole fraction)

Give a short answer stating reported solubility (mole fraction) for CC(C)(Oc1ccc(C2CC2(Cl)Cl)cc1)C(=O)O (stereo unspecified) .
0.159

----------
experimental.conditions: in water, 313.15 K
parameter: solubility (mole fraction)
The answer should be written as a number, with no unit following it.

Supply measured solubility (mole fraction) of CC(C)(Oc1ccc(C2CC2(Cl)Cl)cc1)C(=O)O (stereo unspecified) in your reply.
2.05e-06

----------
experimental.conditions: in water, 323.15 K
parameter: solubility (mole fraction)
A bare number is all that is needed in reply.

Supply solubility (mole fraction) value. Item: CC(C)(Oc1ccc(C2CC2(Cl)Cl)cc1)C(=O)O (stereo unspecified)
2.65e-06

----------
experimental.conditions: in n-propanol, 308.15 K
parameter: solubility (mole fraction)
I'd appreciate a reply containing only the number, no unit.

Answer with the recorded solubility (mole fraction) of CC(C)(Oc1ccc(C2CC2(Cl)Cl)cc1)C(=O)O (stereo unspecified) only.
0.137

----------
experimental.conditions: in ethylene glycol, 298.15 K
parameter: solubility (mole fraction)
# print the numeric value only

For the compound CC(C)(Oc1ccc(C2CC2(Cl)Cl)cc1)C(=O)O (stereo unspecified) , give its measured solubility (mole fraction) value.
0.053

----------
experimental.conditions: in DMF, 323.15 K
parameter: solubility (mole fraction)
Reply briefly: the number, and no unit.

Determine from records and report solubility (mole fraction) for CC(C)(Oc1ccc(C2CC2(Cl)Cl)cc1)C(=O)O (stereo unspecified)
0.407

----------
experimental.conditions: in n-propanol, 323.15 K
parameter: solubility (mole fraction)
The answer should be a number; do not append a unit.

Retrieve solubility (mole fraction) measured for CC(C)(Oc1ccc(C2CC2(Cl)Cl)cc1)C(=O)O (stereo unspecified) and print it.
0.169

----------
experimental.conditions: in ethylene glycol, 278.15 K
parameter: solubility (mole fraction)
Returns: the value as a bare number; no unit string appended.

Could you please provide reported solubility (mole fraction) for CC(C)(Oc1ccc(C2CC2(Cl)Cl)cc1)C(=O)O (stereo unspecified) ? Thanks!
0.0348

----------
experimental.conditions: in ethanol, 293.15 K
parameter: solubility (mole fraction)
Please reply with the number alone, leaving off any unit.

Respond only with solubility (mole fraction) recorded for CC(C)(Oc1ccc(C2CC2(Cl)Cl)cc1)C(=O)O (stereo unspecified)
0.203

----------
experimental.conditions: in n-propanol, 293.15 K
parameter: solubility (mole fraction)

Specify solubility (mole fraction) for CC(C)(Oc1ccc(C2CC2(Cl)Cl)cc1)C(=O)O (stereo unspecified) and stop.
0.104

----------
experimental.conditions: in ethanol, 318.15 K
parameter: solubility (mole fraction)
Form rule: numeric answer, no unit written next to it.

Dear colleague, please send me the reported solubility (mole fraction) for CC(C)(Oc1ccc(C2CC2(Cl)Cl)cc1)C(=O)O (stereo unspecified) when you can.
0.294

----------
experimental.conditions: in water, 278.15 K
parameter: solubility (mole fraction)

Respond only with solubility (mole fraction) recorded for CC(C)(Oc1ccc(C2CC2(Cl)Cl)cc1)C(=O)O (stereo unspecified)
5.95e-07

----------
experimental.conditions: in ethanol, 313.15 K
parameter: solubility (mole fraction)
Simply state the number, no unit and no words.

Consider the molecule CC(C)(Oc1ccc(C2CC2(Cl)Cl)cc1)C(=O)O (stereo unspecified) . State its measured solubility (mole fraction).
0.277

----------
experimental.conditions: in water, 298.15 K
parameter: solubility (mole fraction)
Give the figure by itself; no unit, no explanation.

Return value of solubility (mole fraction) for input CC(C)(Oc1ccc(C2CC2(Cl)Cl)cc1)C(=O)O (stereo unspecified) , no commentary.
1.31e-06

----------
experimental.conditions: in DMF, 293.15 K
parameter: solubility (mole fraction)

Please supply the value of reported solubility (mole fraction) for the item CC(C)(Oc1ccc(C2CC2(Cl)Cl)cc1)C(=O)O (stereo unspecified)
0.277

----------
experimental.conditions: in water, 293.15 K
parameter: solubility (mole fraction)
Could you respond with only the numeric value?

Return value of solubility (mole fraction) for input CC(C)(Oc1ccc(C2CC2(Cl)Cl)cc1)C(=O)O (stereo unspecified) , no commentary.
1.1e-06

This collection of values is drawn from BigSolDB 2.1.
